SUBJECT OF TEST: EGFR (human) (UniProt P00533)
MEASUREMENT PARAMETERS: mda-mb-468
PARAMETER: IC50

> print(dat)
                                chem.smiles  parameter  recorded.measurement
1  COc1cc2ncc([N+](=O)[O-])c(Nc3ccc(Cl)c(F)c3)c2cc1OCc1ccccc1       IC50                220 nM

====

SUBJECT OF TEST: UniProt:P00533
PARAMETER: IC50

> print(dat)
                                chem.smiles  recorded.measurement
1  COc1cc2ncnc(Nc3cccc(Cl)c3F)c2cc1CN(C)C1(C(N)=O)CCN(S(C)(=O)=O)CC1                  9 nM

====

SUBJECT OF TEST: EGFR (human), P00533 [WT]
Sequence (P00533 whole entry, looked up): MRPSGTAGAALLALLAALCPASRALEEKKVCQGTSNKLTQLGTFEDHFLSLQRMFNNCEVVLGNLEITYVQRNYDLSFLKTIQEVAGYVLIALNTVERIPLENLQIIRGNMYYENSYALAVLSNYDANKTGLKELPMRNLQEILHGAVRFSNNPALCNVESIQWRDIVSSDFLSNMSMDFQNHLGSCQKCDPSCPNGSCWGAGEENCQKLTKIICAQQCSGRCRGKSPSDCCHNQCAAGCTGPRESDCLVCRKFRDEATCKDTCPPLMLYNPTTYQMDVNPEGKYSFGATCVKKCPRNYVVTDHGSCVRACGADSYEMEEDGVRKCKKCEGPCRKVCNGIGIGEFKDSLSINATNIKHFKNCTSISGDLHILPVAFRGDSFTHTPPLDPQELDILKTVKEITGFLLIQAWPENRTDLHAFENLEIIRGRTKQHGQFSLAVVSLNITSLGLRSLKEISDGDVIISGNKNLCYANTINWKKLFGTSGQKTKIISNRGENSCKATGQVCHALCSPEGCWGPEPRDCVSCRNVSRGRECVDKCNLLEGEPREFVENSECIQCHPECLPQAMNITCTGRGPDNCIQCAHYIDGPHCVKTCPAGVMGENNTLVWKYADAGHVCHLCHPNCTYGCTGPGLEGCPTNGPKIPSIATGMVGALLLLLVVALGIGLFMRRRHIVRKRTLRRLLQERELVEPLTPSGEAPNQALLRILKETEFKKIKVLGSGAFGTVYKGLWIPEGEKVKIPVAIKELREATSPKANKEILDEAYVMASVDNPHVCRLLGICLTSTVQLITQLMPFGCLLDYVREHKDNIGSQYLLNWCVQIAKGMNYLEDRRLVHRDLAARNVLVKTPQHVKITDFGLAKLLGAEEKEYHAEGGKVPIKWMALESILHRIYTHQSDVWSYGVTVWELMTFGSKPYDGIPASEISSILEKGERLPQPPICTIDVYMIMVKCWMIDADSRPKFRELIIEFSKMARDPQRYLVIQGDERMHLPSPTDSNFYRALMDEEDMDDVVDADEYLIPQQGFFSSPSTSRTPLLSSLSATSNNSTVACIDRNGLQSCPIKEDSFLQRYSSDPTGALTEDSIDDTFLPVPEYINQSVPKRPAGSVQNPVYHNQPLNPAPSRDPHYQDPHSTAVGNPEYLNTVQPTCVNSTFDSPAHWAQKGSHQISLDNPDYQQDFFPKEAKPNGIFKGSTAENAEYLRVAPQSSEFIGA
pIC50: −log10 of the molar value.
PARAMETER: pIC50

> print(dat)
                                chem.smiles            subject.of.test  recorded.measurement
1  CN1CCN([C@H]2CC[C@H](n3nc(-c4ccc(Nc5nc6cccc(Cl)c6o5)cc4)c4c(N)ncnc43)CC2)CC1  EGFR (human), P00533 [WT]                  8.70

====

Measured IC50 by item
SUBJECT OF TEST: EGFR (human) (UniProt P00533)
PARAMETER: IC50 (µM)

> print(dat)
                                chem.smiles                subject.of.test  units.of.measure  recorded.measurement
1                O=C(O)C1=Cc2c(Cl)ncnc2NCC1  EGFR (human) (UniProt P00533)                µM                 0.036
2  CC(C)(C)NC(=O)c1cccc(Oc2ccc(Nc3ncnc4ccn(CCO)c34)cc2Cl)c1  EGFR (human) (UniProt P00533)                µM                0.0023
3  O=C1C2=C(C(=O)c3c(O)ccc(O)c31)[C@@H](O)[C@@H](O)[C@@H](O)C2  EGFR (human) (UniProt P00533)                µM                    13
4       O=C1C(CO)=C(CO)C(=O)c2c(O)ccc(O)c21  EGFR (human) (UniProt P00533)                µM                    15

====

SUBJECT OF TEST: EGFR (mouse) (UniProt P00533)
MEASUREMENT PARAMETERS: Swiss 3T3
PARAMETER: IC50

> print(dat)
                        chem.smiles  recorded.measurement
1        Cc1cc2ncc(-c3cccs3)nc2cc1C               > 30 µM
2   Cc1nc2cc3nc(-c4cccs4)cnc3cc2n1C               > 30 µM
3  Cc1nc2cc3nc(-c4ccccc4)cnc3cc2n1C               > 30 µM

====

SUBJECT OF TEST: EGFR (human)
MEASUREMENT PARAMETERS: h1975
pIC50: −log10 of the molar value.
PARAMETER: pIC50

> print(dat)
                                chem.smiles  parameter  recorded.measurement
1  CCOC(=O)[C@@H]1O[C@H]1C(=O)Nc1ccc2ncnc(Nc3cccc(Br)c3)c2c1      pIC50                  5.17

Data credit: the Kinase Knowledgebase extract (Sharma et al. 2016)
